The measurements presented in this section are drawn from paper PMC3559838.

Assay: Pharmacokinetics after 30 min i.v. infusion, phase I trial in hepatocellular carcinoma patients
Assay type: in vivo, human
Conditions: human, plasma, iv, 600 mg/m^2; read-out: AUC0–24 h
MEASURED QUANTITY: AUC(0-t)
Show the value, then the unit it is measured in.

Supply reported AUC(0-t) belonging to this molecule: O=C(/C=C/c1cccc(S(=O)(=O)Nc2ccccc2)c1)NO
61.3 µM·h

----------
Assay: Pharmacokinetics after 30 min i.v. infusion, phase I trial in hepatocellular carcinoma patients
Type: in vivo, human
Conditions: human, iv; 1400 mg/m^2, 30 min i.v. infusion, plasma, mean ± SD
MEASURED QUANTITY: Cmax (µM)
Give just the number in µM; leave the unit off.

Look up and report measured Cmax for this entry: O=C(/C=C/c1cccc(S(=O)(=O)Nc2ccccc2)c1)NO [Belinostat]
174

----------
Experiment: Pharmacokinetics after 30 min i.v. infusion, phase I trial in hepatocellular carcinoma patients
Assay type: in vivo, human
Settings: human, plasma, iv, 900 mg/m^2; read-out: AUC0–24 h
MEASURED QUANTITY: AUC(0-t) (µM·h)
Kindly provide the numeric value in µM·h only, without the unit symbol.

Let me know recorded AUC(0-t) for O=C(/C=C/c1cccc(S(=O)(=O)Nc2ccccc2)c1)NO [Belinostat] , thanks.
70

----------
System: HepG2 cells
Test: MTS growth inhibition assay
Type: cell-based, human
Conditions: Homo sapiens, HepG2, 72 h
MEASURED QUANTITY: pIC50
For clarity, pIC50 is expressed as the negative log10 of concentration in mol/L.

Supply pIC50 value. Item: O=C(/C=C/c1cccc(S(=O)(=O)Nc2ccccc2)c1)NO [Belinostat]
5.19

----------
Assay: Pharmacokinetics after 30 min i.v. infusion, phase I trial in hepatocellular carcinoma patients
Type: in vivo, human
Details: human, plasma, iv; 1400 mg/m^2, 30 min i.v. infusion; read-out: T1/2 (half-life at the elimination phase) (converted)
MEASURED QUANTITY: half-life (h)
Give the number; h is assumed, so skip it.

Using the record for O=C(/C=C/c1cccc(S(=O)(=O)Nc2ccccc2)c1)NO [Belinostat] , state its measured half-life.
3.54
